test: Oral bioavailability in Sprague-Dawley rat at 15 mg/kg after 24 hrs; format: ADME, organism-based; settings: in vivo
RECORDED_METRIC: bioavailability (%)
Answers are plain numbers, in %.

{"columns": ["COMPOUND_SMILES", "RECORDED_METRIC", "RECORDED_VALUE"],
 "data": [
  ["COc1cc2ccc3cc2cc1CCCC(C)(C)CCOC(=O)N[C@@H](C(C)(C)C)C(=O)N1C[C@@]3(OC)C[C@H]1C(=O)N[C@]1(C(=O)NS(=O)(=O)C2CC2)C[C@H]1C1CC1", "bioavailability", 100],
  ["COc1cc2ccc3cc2cc1OCCCN(C1CC1)CCOC(=O)N[C@@H](C(C)(C)C)C(=O)N1C[C@@]3(OC)C[C@H]1C(=O)N[C@]1(C(=O)NS(=O)(=O)C2CC2)C[C@H]1C1CC1", "bioavailability", 18],
  ["CO[C@@]12C[C@@H](C(=O)N[C@]3(C(=O)NS(=O)(=O)C4CC4)C[C@H]3C3CC3)N(C1)C(=O)[C@H](C(C)(C)C)NC(=O)OCCCCCOc1ccc3ccc2cc3c1", "bioavailability", 16]
]}

// moving on: another record for bioavailability
Q: Look up bioavailability: COc1cc2ccc3cc2cc1CCCCCCOC(=O)N[C@@H](C(C)(C)C)C(=O)N1C[C@@]3(OC)C[C@H]1C(=O)N[C@]1(C(=O)NS(=O)(=O)C2CC2)C[C@H]1C1CC1
Result: 34
